Source of measurements: patent US20160038411A1

- Test Name: Two-period crossover study in GERD patients: plasma omeprazole PK
- Format: in vivo, human
- Study Conditions: human, plasma, oral, 20 mg at dinner + 20 mg four hours later; patients without NAB (n = 9); read-out: median AUC (25-75%)
Property Label: AUC (ng·h/mL)
Give the number; ng·h/mL is assumed, so skip it.

(Q) Need AUC of COc1ccc2[nH]c([S+]([O-])Cc3ncc(C)c(OC)c3C)nc2c1 (stereo not shown) [omeprazole] , thanks.
(A) 1910
